Just for reference, PubChem BioAssay (NCATS) is where these values come from.

- target.entity: Cytochrome P450 1A2 (Homo sapiens) (UniProt P05177)
- Sequence (P05177 whole entry, looked up): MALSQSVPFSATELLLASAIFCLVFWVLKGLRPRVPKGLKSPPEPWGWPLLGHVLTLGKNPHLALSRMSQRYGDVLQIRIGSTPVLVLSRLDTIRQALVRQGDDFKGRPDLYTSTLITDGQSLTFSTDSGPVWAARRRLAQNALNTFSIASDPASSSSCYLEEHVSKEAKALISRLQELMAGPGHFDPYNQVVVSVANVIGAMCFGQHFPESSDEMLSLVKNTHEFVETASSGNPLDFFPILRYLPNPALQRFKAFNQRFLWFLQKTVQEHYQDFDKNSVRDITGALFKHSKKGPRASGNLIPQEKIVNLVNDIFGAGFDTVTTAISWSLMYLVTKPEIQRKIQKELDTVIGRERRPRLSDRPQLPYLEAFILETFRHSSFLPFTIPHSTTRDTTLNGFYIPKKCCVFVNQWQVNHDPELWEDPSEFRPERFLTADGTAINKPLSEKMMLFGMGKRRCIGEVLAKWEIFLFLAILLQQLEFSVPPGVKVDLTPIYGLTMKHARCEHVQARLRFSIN
- test.method.notes: p450-cyp1a2 (AID 410)
- run.conditions: recombinant CYP1A2, luciferin-ME demethylation, luminescence; series mostly up to 11.4 µM
Results filed as inconclusive are left out. Activity calls are given as the source filed them. Calls follow the shape of the full dose curve.
Labels: active, inactive

compound=CC(C)(C)c1ccc(NS(=O)(=O)c2ccc(N)cc2)cc1 group=active
compound=Cc1ccc(S(=O)(=O)N2CCC(C(=O)O)(c3ccccc3)CC2)cc1 group=inactive
compound=O=C(O)c1ccccc1NCn1c(=S)sc2ccccc21 group=active
compound=N=C(N)[C@H](N=Nc1ccccc1)C(N)=O group=active
compound="CC1CCC(O)([C@](C)(C(=O)O)c2ccccc2)CC1 (some centres not stated)" group=inactive
compound=CN[C@@H](c1ccncc1)[C@@H](NC)c1ccncc1 group=inactive
compound=O=C(O)c1nnsc1-c1csnn1 group=inactive
compound=O=C(O)c1ccc(Nc2ccnc3cc(Cl)ccc23)cc1O group=active
compound=O=[N+]([O-])c1ccc2ncccc2c1CCc1c([N+](=O)[O-])ccc2ncccc12 group=active
compound=Nc1nc(SCCc2ccccc2)c2[nH]cnc2n1 group=active
compound=C[N+](C)(C)c1cc2c(nn1)Nc1ccccc1S2 group=active
compound=Cc1cc2ccc(OC(=O)c3ccc(N=C(N)N)cc3)cc2oc1=O group=active
